meta.source: PubChem BioAssay AID1159580

Test: chemical genetic growth profiling, strain panel (AID 1159580);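 also: tested at 20 µM; growth read once vehicle control cultures reached saturation at 30 °C; 1 = growth at the plate median or of vehicle wells; lower values mean less growth of the strain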
Conditions: S. cerevisiae deletion strains, growth OD, locus YJR075W, strain HOC1, hits give low values
Out of some 5,500 compounds screened, about 2,000 (36%) were called active. Not shown: some 18% with an inconclusive outcome. The list shows a part of the results.
metricName: normalized growth

>>> print(df.to_string())
                                   compound  assayvalue
0  CCCCC(CC)CN=C(N)NC(N)=NCCCCCCN=C(N)NC(N)=NCC(CC)CCCC (configuration not stated)      0.0661
1                      O=C1CC(c2ccccc2)=NO1         0.3
2           O=C(CCN1CCOCC1)c1ccc2c(c1)OCCO2        1.01
3            Cc1cccc2nc(-c3ccccc3)oc(=O)c12       0.942
4            CCC(=O)N1CCN(C(=O)c2ccccc2)CC1        1.02
5                CC(N)=NCCCC[C@@H](N)C(=O)O           1
6  CC1(C)CC2C1CCC1(C)OC2(C)CCC1O (configuration not stated)        1.01

---

Test: chemical genetic growth profiling, strain panel (AID 1159580)
Conditions: S. cerevisiae deletion strains, growth OD, locus YJL095W, strain BCK1 (second series), hits give low values
Screen size: about 5,500 compounds; about 2,000 (36%) were called active. Inconclusive results (about 18%) are left out. The list shows a part of the results.
normalized growth values, listed per item

compound	normalized growth
COc1ccc(CN(CCN(C)C)c2ncccn2)cc1	1.01 (inactive)
O=C1O[C@@H](CO)[C@H](O)[C@@H](O)[C@@H]1O	1.02 (inactive)
CC1(C)O[C@@H]2[C@@H](CO[C@@]3(COS(N)(=O)=O)OC(C)(C)O[C@@H]23)O1	1.01 (inactive)
N[C@@H](CCC(=O)N[C@@H](CCSC(CC(=O)O)C(=O)O)C(=O)NCC(=O)O)C(=O)O (some centres undefined)	1.02 (inactive)
Cc1ccc(C(C)C)cc2c(C)ccc1-2	1 (inactive)
CCOC(=O)c1ccc(N)cc1	1.01 (inactive)
C[C@H](COc1ccccc1)N[C@H](C)[C@H](O)c1ccc(O)cc1	0.998 (inactive)
CO[C@@H]1[C@@H](O[C@@H]2O[C@H](C)[C@@H](O[C@H]3C[C@@](C)(O)[C@H](O)[C@H](C)O3)[C@H](N(C)C)[C@H]2O)[C@@H](CC=O)C[C@@H](C)[C@@H](O[C@H]2CC[C@H](N(C)C)[C@@H](C)O2)/C=C/C=C/C[C@H](C)OC(=O)C[C@H]1O	1.01 (inactive)
NC(=O)c1ccc(N)nc1	0.989 (inactive)

---

Experiment: chemical genetic growth profiling, strain panel (AID 1159580)
Conditions: S. cerevisiae deletion strains, growth OD, locus YGR052W, strain FMP48, hits give low values
The campaign covered roughly 5,500 compounds. About 2,000 (36%) were called active. Roughly 18% stayed inconclusive and do not appear here. The list shows a part of the results.
normalized growth values, listed per item
metricName: normalized growth

>>> df
                                   compound         metricname  assayvalue
0  COc1cc(C(=O)Oc2c(Cl)cc(Cl)cc2C=Nc2cccc(C(F)(F)F)c2)cc(OC)c1OC  normalized growth       0.556
1  COc1cc(C(=O)Oc2c(Cl)cc(Cl)cc2C=Nc2ccc([N+](=O)[O-])cc2C#N)cc(OC)c1OC  normalized growth       0.508
2  Cc1nc(C(F)(F)F)c(C(=O)O/N=C(/N)c2ccc(Cl)cc2)s1  normalized growth       0.952
3  CCC1CCC(C)N(C(=S)Nc2ccc(Br)cc2C)C1 (stereo not given)  normalized growth        1.11
4  CSc1c(C#N)c(-c2ccc(Cl)cc2)nn1C(=O)c1ccccc1Cl  normalized growth        0.97
5  CC(C)(O)C#Cc1ccc(/C=N\Nc2c(Cl)cc(Cl)cc2Cl)cc1  normalized growth       0.769
6  O=S(=O)(Nc1cc(C(F)(F)F)ccc1F)c1cc(C(F)(F)F)ccc1Cl  normalized growth       0.831
7  CCCC1c2ccsc2CCN1C(=S)Nc1ccc(Cl)cc1Cl (stereo not given)  normalized growth           1
8            NC(=NC(=O)c1ccc(Cl)cc1)c1cccs1  normalized growth       0.794
9  Nc1cc(-c2ccc(OC(F)(F)F)cc2)nn1-c1ccc(Cl)c(Cl)c1  normalized growth       0.446

---

Assay: chemical genetic growth profiling, strain panel (AID 1159580)
Conditions: S. cerevisiae deletion strains, growth OD, locus YNL153C, strain GIM3
About 2,000 (36%) of roughly 5,500 compounds were called active. Not shown: some 18% with an inconclusive outcome. No stated cut-off is given here; in the data, active means normalized growth mostly below about 0.91 (no sharp cut-off); inconclusive means no clear call, values can overlap the other calls; inactive means mostly above about 0.92. The list shows a part of the results.
Possible outcomes: 1.0 for active, 0.0 for inactive

>>> df
                                   molecule  qualitativelabel
0  COc1ccccc1OCC(O)CN1CCN(CC(=O)Nc2c(C)cccc2C)CC1 (stereo unspecified)               0.0
1  CSc1nc2ccc(NC(=O)c3c(-c4ccccc4)noc3C)cc2s1               0.0
2                         COc1nc(N)nc(SC)n1               0.0
3  CCOC(=O)CCc1cc(N=Cc2cc(Cl)cc(Cl)c2O)c(O)c(N=Cc2cc(Cl)cc(Cl)c2O)c1               1.0
4   CCn1cc(C(=O)O)c(=O)c2ccc(Cc3ccccc3)nc21               0.0
5  CN(C)c1ccc(/C=N\NC(=O)CCc2ccc(O)cc2)c(Cl)c1               0.0

---

Experiment: chemical genetic growth profiling, strain panel (AID 1159580);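 also: tested at 20 µM; growth read once vehicle control cultures reached saturation at 30 °C; 1 = growth at the plate median or of vehicle wells; lower values mean less growth of the strain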
Settings: S. cerevisiae deletion strains, growth OD, locus YDR001C, strain nth1, hits give low values
About 2,000 (36%) of roughly 5,500 compounds were called active. Inconclusive results (about 18%) are left out. Some of the results follow.
metricName: normalized growth

molecule	assayValue
CC[C@]1(O)CC2CN(CCc3c([nH]c4ccccc34)[C@@](C(=O)OC)(c3cc4c(cc3OC)N(C=O)[C@H]3[C@@](O)(C(=O)OC)[C@H](OC(C)=O)[C@]5(CC)C=CCN6CC[C@]43[C@@H]65)C2)C1 (some centres undefined)	1
CCn1cc(C(=O)O)c(=O)c2cnc(N3CCNCC3)nc21	1.01
CCn1cc(C(=O)O)c(=O)c2ccc(C)nc21	0.94
COC(=O)[C@H]1[C@H]2C[C@@H]3c4[nH]c5cc(OC)ccc5c4CCN3C[C@H]2C[C@@H](OC(=O)c2cc(OC)c(OC)c(OC)c2)[C@@H]1OC	0.984

---

Assay: chemical genetic growth profiling, strain panel (AID 1159580);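 also: tested at 20 µM; growth read once vehicle control cultures reached saturation at 30 °C; 1 = growth at the plate median or of vehicle wells; lower values mean less growth of the strain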
Conditions: S. cerevisiae deletion strains, growth OD, locus YPR141C, strain kar3, hits give low values
In all, about 5,500 compounds went through this assay and about 2,000 (36%) were called active. Not shown: some 18% with an inconclusive outcome. The list shows a part of the results.
We label by threshold. Values of normalized growth strictly beneath 1 are met. Values of 1 and up are not met.

In [3]: df
Out[3]:
                                   compound  qualitativelabel
0  CC(=O)O[C@H]1CC[C@@]2(C)C(=CCC3C2CC[C@]2(C)C(=O)CCC32)C1 (stereo partly specified)           not met
1                 C=CCc1cc(OC)c2c(c1OC)OCO2               met
2  O=C(O)c1cc(=O)c2c(OCC(O)COc3cccc4oc(C(=O)O)cc(=O)c34)cccc2o1           not met
3  O=C1N=C(O)CN1/N=C\c1ccc(-c2ccc([N+](=O)[O-])cc2)o1           not met

---

normalized growth values, listed per item
Test: chemical genetic growth profiling, strain panel (AID 1159580);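 also: tested at 20 µM; growth read once vehicle control cultures reached saturation at 30 °C; 1 = growth at the plate median or of vehicle wells; lower values mean less growth of the strain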
Details: S. cerevisiae deletion strains, growth OD, locus YDR502C, strain sam2, hits give low values
The whole screen tested about 5,500 compounds, of which about 2,000 (36%) were called active. Inconclusive results (about 18%) are left out. Some of the results follow.

compound	normalized growth
Nc1nc2c(c(=O)[nH]1)N(C=O)C(CNc1ccc(C(=O)N[C@@H](CCC(=O)O)C(=O)O)cc1)CN2 (stereo partly specified)	0.985
COc1ccc(-c2cc(C(F)F)nn2-c2ccc(S(N)(=O)=O)cc2)cc1F	0.996
NC(=O)N/N=C\c1ccc([N+](=O)[O-])o1	0.978
O=C1OCCN1/N=C\c1ccc([N+](=O)[O-])o1	0.92
CN(C)CCCO[C@H]1[C@@H](C(O)CO)OC2OC(C)(C)O[C@@H]21 (stereo partly specified)	0.937
CCOP(=S)(OCC)SCSCC	1
C[C@@H]1CC2C3CCC4=CC(=O)C=C[C@]4(C)[C@@]3(F)[C@@H](O)C[C@]2(C)[C@@]1(O)C(=O)COP(=O)(O)O (stereo partly specified)	1.01
O=C(O)c1cc(=O)c(O)c2c(O)c(O)ccc2c1	1.02
CCn1cc(C(=O)O)c(=O)c2ccc(C)nc21	0.961
NCc1ccc(S(N)(=O)=O)cc1	0.99
O=C1N=C(O)CN1/N=C\c1ccc(-c2ccc([N+](=O)[O-])cc2)o1	1.01
CC(=O)O[C@H]1C[C@@H](OC(C)=O)C(C)(C)C2C[C@@H](OC(C)=O)[C@]3(C)C(CC[C@@]4(C)[C@H](c5ccoc5)C(=O)[C@H]5O[C@]543)[C@]21C (stereo partly specified)	1.02
Oc1cc(O)cc(/C=C/c2ccccc2)c1	0.962
COC(=O)[C@H]1[C@H]2C[C@@H]3c4[nH]c5cc(OC)ccc5c4CCN3C[C@H]2C[C@@H](OC(=O)c2cc(OC)c(OC)c(OC)c2)[C@@H]1OC	0.996
CCn1cc(C(=O)O)c(=O)c2cnc(N3CCNCC3)nc21	1
Nc1nc2ncc(CNc3ccc(C(=O)N[C@@H](CCC(=O)O)C(=O)O)cc3)nc2c(=O)[nH]1	0.986
CC(=O)C1=C(O)C2C3c4c[nH]c5cccc(c45)CC3C(C)(C)N2C1=O (stereo unspecified)	1.01
CC[C@@]1(C2O[C@@H](C3O[C@@](O)(CC)[C@H](C)C[C@@H]3C)C[C@@H]2C)CC[C@H]([C@]2(C)CCC3(C[C@H](O)[C@@H](C)[C@@H]([C@H](C)[C@@H](OC)[C@H](C)C(=O)O)O3)O2)O1 (stereo partly specified)	0.983
Nc1nc(N)c2nc(CNc3ccc(C(=O)NC(CCC(=O)O)C(=O)O)cc3)cnc2n1 (stereo unspecified)	1
CO[C@@H]1[C@@H](O[C@@H]2O[C@H](C)[C@@H](O[C@H]3C[C@@](C)(O)[C@H](O)[C@H](C)O3)[C@H](N(C)C)[C@H]2O)[C@@H](CC=O)C[C@@H](C)[C@@H](O[C@H]2CC[C@H](N(C)C)[C@@H](C)O2)/C=C/C=C/C[C@H](C)OC(=O)C[C@H]1O	0.989
C/C=C/c1ccc(OC)cc1	0.998
C=CCN1CC[C@]23c4c5ccc(O)c4OC2C(=O)CC[C@@]3(O)[C@H]1C5 (stereo partly specified)	0.984
C[C@](N)(Cc1ccc(O)c(O)c1)C(=O)O	1
COc1cc(O)cc(/C=C/c2ccccc2)c1	0.748
CC1(C)C2CC(=O)O[C@@]3(C)C4=CC(=O)O[C@@H](c5ccoc5)[C@]4(C)CCC3[C@@]2(C)C=C[C@H]1O (stereo partly specified)	0.998
CCOP(=S)(OCC)SCCSCC	0.986
C[C@@H]1C[C@@H]([C@H](O)CC2CC(=O)NC(=O)C2)C(=O)[C@@H](C)C1	0.061
CC1CC2C(C(O)CC3(C)C2CCC3(O)C(=O)COC(=O)CCC(=O)O)C2(C)C=CC(=O)C=C12 (stereo unspecified)	0.982
COc1ccc(/C=C/c2cc(O)cc(O[C@@H]3O[C@H](CO)[C@@H](O)[C@H](O)[C@H]3O)c2)cc1O	1.02
COS(C)(=O)=O	0.994
CCOP(=S)(OCC)SCSP(=S)(OCC)OCC	0.99
CC(=O)OCC(=O)[C@@]12OC(C)(C)O[C@@H]1CC1C3C[C@H](F)C4=CC(=O)C=C[C@]4(C)[C@@]3(F)[C@@H](O)C[C@@]12C (stereo partly specified)	1
CC[C@@H](C(=O)[C@@H](C)[C@@H](O)[C@H](C)[C@@H]1O[C@@H]([C@@H](CC)C(=O)O)CC[C@@H]1C)[C@H]1OC2(C=C[C@@H](O)[C@]3(CC[C@@](C)([C@H]4CC[C@](O)(CC)[C@H](C)O4)O3)O2)[C@H](C)C[C@@H]1C (stereo partly specified)	0.847
CCOc1ccc2c(c1)C(C)=CC(C)(C)N2	0.993
c1cc2c(cc1[C@H]1OC[C@H]3[C@@H]1CO[C@H]3c1ccc3c(c1)OCO3)OCO2	0.869
O=C1CN(/N=C\c2ccc([N+](=O)[O-])o2)C(=O)N1	0.974
